Data origin: PubChem BioAssay

- study.target: NADPH oxidase 5 (Homo sapiens)
- experiment: compounds shifting NOX5 Amplex Red fluorescence – cell-based, HEK293-NOX5, NOX inhibitor project, primary screen (AID 1161)
- condition.description: HEK293-NOX5, ionomycin, 45 min, higher = more signal
attribute.measured: z-score

compound	reported
COCCOC(=O)N1C(=O)[C@@]2(c3ccccc31)[C@H](C(=O)NC[C@H](O)c1ccccc1)[C@H]1C(=O)O[C@H](c3ccccc3)[C@H](c3ccccc3)N1[C@@H]2c1ccc(O)cc1	0.855
CO[C@H]1O[C@H](CO)[C@@H](OC(=O)Nc2ccc3c(c2)OCO3)[C@H](OC(=O)Nc2ccc3c(c2)OCO3)[C@@H]1OC(=O)Nc1ccc2c(c1)OCO2	-1.57
CO[C@H]1O[C@H](CO)[C@@H](OC(=O)Nc2ccc(Br)cc2)[C@@H]2OC(=O)[C@@H](Cc3ccccc3)C/C=C/C[C@H](Cc3ccccc3)C(=O)O[C@@H]12	0.0979
CC1CC/C=C\[C@H]2OC34C=CCN(Cc5ccccc5)C(=O)[C@H]3N(C(CO)C(C)C)C(=O)[C@@H]4C2C(=O)O1 (stereo partly specified)	2.21
COc1ccc([C@H]2OC[C@@H]3C[C@H](Cc4ccccc4)C(=O)N32)cc1	0.695
COc1ccc(C#Cc2ccc3c(c2)[C@]2(C(=O)N3)[C@H](c3ccc(O)cc3)N3[C@H](c4ccccc4)[C@H](c4ccccc4)OC(=O)[C@H]3[C@@H]2C(=O)Nc2nc3ccccc3s2)cc1	-1.34
